Readings of IC50 for the listed compounds
Target: Histone-lysine N-methyltransferase EHMT2 (Homo sapiens, UniProt Q96KQ7)
Sequence (Q96KQ7 whole entry): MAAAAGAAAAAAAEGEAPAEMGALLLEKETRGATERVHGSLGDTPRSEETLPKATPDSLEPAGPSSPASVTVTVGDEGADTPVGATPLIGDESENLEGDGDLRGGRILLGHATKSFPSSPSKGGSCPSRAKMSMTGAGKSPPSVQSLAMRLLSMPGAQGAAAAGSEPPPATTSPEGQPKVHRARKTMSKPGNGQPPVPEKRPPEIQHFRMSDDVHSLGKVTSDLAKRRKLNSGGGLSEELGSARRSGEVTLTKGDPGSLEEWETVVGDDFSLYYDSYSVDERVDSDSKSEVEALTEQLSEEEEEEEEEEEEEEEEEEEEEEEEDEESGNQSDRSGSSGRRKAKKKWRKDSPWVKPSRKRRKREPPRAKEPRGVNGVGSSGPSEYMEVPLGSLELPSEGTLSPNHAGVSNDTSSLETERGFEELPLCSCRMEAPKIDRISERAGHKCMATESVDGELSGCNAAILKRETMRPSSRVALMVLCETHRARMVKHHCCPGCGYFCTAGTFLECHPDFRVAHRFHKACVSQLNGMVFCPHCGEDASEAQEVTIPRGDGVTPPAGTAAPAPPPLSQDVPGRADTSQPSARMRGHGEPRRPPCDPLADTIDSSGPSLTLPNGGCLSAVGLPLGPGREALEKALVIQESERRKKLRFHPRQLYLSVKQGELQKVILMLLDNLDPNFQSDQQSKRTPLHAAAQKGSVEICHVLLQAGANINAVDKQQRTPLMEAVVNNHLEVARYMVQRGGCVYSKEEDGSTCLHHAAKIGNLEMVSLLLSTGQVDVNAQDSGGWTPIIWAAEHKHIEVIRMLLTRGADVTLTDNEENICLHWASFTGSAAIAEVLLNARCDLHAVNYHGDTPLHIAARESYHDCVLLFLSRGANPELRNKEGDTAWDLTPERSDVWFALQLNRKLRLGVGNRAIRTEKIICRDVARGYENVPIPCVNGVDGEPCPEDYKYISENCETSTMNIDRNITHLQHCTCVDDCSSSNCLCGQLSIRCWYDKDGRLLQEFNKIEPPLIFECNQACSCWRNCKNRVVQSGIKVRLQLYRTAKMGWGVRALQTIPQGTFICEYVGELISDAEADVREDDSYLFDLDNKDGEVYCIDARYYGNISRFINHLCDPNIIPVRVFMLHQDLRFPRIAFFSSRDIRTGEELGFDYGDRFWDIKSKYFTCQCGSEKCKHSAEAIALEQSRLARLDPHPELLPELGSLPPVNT
Observable: IC50 (µM)

> print(dat)
                               given.smiles  number
1  COc1cc2c(cc1OCCCN1CC[C@H](F)C1)N=C(N)C21CCC1   0.018
2                   COc1cc2cc(N)[nH]c2cc1OC    14.4
